Tested on: Cryptococcus neoformans
Assay: Antifungal activity against Cryptococcus neoformans TDY271 after 72 hrs by microdilution assay
Assay type: functional, organism-based
Details: TDY271, 72 h
parameter.measured: IC50
Include the unit right after the number.

Look up IC50 for this compound: "O=C(Nc1ncc(Cc2cccc3ccccc23)s1)C1CCCCC1"
1250 nM

----------
Parameter: solubility. Scope: all listed entries.
Assay: Aqueous solubility of the compound at pH 7
Type: physicochemical
Details: aqueous medium
Give your result in µg/mL as a bare value.

Answered cases to consult:
Look up solubility for this molecule: "O=C(CCC1CCCCC1)Nc1ncc(Cc2ccnc3ccccc23)s1"
3

Another: "O=C(Nc1ncc(Cc2cccc3ccccc23)s1)C1CCCCC1"
4

Let us move to another entry and its solubility.
Look up solubility for this molecule: "O=C(CCC1CCCCC1)Nc1ncc(Cc2ccncc2)s1"
40

----------
Parameter: MIC90. Scope: all listed entries.
Tested on: Cryptococcus neoformans
Assay: Antifungal activity against wild type fluconazole-sensitive Cryptococcus neoformans serotype A H99 at pH 7 measured over 4 days
Format: functional, organism-based
Conditions: var grubii H99 , 96 h

Answered cases to consult:
Look up MIC90 for this compound: "O=C(CCC1CCCCC1)Nc1ncc(Cc2ccccc2)s1"
> 40 µM

Another: "O=C(CCC1CCCCC1)Nc1ncc(Cc2cccc3nsnc23)s1"
> 40 µM

Another: "O=C(CCC1CCCCC1)Nc1ncc(Cc2cccc3ccsc23)s1"
> 40 µM

Another: "O=C(Nc1ncc(Cc2cccc3sccc23)s1)C1CCCCC1"
0.63 to 1.25 µM

Next:
Look up MIC90 for this compound: "O=C(CCC1CCCCC1)Nc1ncc(Cc2cccc3c2CCCC3)s1"
> 40 µM

Another: "CCc1cnc(NC(=O)C2CCCCC2)s1"
> 40 µM
